biological target: monoclonal antibody D32.39
surface (amide) = not defined here
Property: Normalized Intensity (%)

Ac-FKVV-{surface (amide)} (reading uncertain) [FKVV, surface-immobilized peptide] = 10
Ac-FLRRQ-{surface (amide)} (reading uncertain) [FLRRQ, surface-immobilized peptide] = 8
Ac-RRQF-{surface (amide)} (reading uncertain; also: C-terminus amide-linked to surface) [RRQF, surface-immobilized peptide] = 11
Ac-FLRRQF-{surface (amide)} (reading uncertain; also: C-terminus amide-linked to surface) [FLRRQF, surface-immobilized peptide] = 8
Ac-LRRQ-{surface (amide)} (reading uncertain; also: C-terminus amide-linked to surface) [LRRQ, surface-immobilized peptide] = 10
